# tested.on: Concanavalin-A (Canavalia ensiformis) (UniProt P02866)
# Sequence (P02866 whole entry, looked up): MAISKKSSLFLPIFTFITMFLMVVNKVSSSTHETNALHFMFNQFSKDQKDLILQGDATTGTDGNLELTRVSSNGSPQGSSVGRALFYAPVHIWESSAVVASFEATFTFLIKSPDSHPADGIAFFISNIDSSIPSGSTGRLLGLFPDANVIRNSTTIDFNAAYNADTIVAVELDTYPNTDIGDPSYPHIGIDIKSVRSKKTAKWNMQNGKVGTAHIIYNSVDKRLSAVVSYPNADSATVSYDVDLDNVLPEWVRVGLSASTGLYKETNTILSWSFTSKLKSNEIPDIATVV
# test.protocol: ConA small-molecule binders, primary screen, artefact control for SMM control protein annotation, biochemical, small-molecule microarray, Alexa647 label, 635 nm (AID 1127)
# condition: ConA-A647 binding fluorescence, higher = more signal
Cut-off 0.9 on composite z-score, inclusive. At or above means true; below means false.

Incoming: Given the entry COC(=O)Cn1c(C(=O)N(C)C)cc2c1C[C@H]1CN(C(=O)c3ccccc3)[C@@](Cc3ccc(OC)cc3)(C(=O)OC)[C@@H]21 , answer whether its composite z-score meets or surpasses 0.9.
Outgoing: false

Incoming: Exam item: decide whether the reported composite z-score for C=CCC(OC(C)=O)[C@@H]1[C@@H](N(Cc2cc3ccccc3o2)C(=O)c2cccc3ccccc23)c2cc(OCCCO)ccc2N1C(=O)c1ccc2ccccc2c1 (some centres undefined) is at least 0.9.
Outgoing: false

Incoming: Decide: composite z-score of COCCOC(=O)N1C(=O)[C@@]2(c3cc(C#CC4(O)CCCCCC4)ccc31)[C@H](c1ccc(OCCO)cc1)N1[C@H](c3ccccc3)[C@H](c3ccccc3)OC(=O)[C@H]1[C@@H]2C(N)=O >= 0.9?
Outgoing: true

Incoming: Tell me whether composite z-score is at least 0.9 here: COc1cc2c(cc1O)C(C1CC1)N(Cc1ccc([N+](=O)[O-])o1)CC2 (centres undefined)
Outgoing: true

Incoming: Is composite z-score at least 0.9? Consider COc1ccc(CC[C@H](O)c2cccc(OCC(=O)OC(C)(C)C)c2)cc1
Outgoing: true

Incoming: Could you tell me if the measured composite z-score of CCCCC(O)C1C=CC2C(=O)N(C)C(=O)C2N1Nc1ccccc1 (centres undefined) reaches 0.9 or more?
Outgoing: false

Incoming: # bool: composite z-score of CCOC(=O)C[C@H]1[C@H](OC(=O)c2cc3ccccc3oc2=O)[C@@H](NC(=O)C2CCCCC2)c2cc(OCCCO)ccc2N1C(=O)Cc1ccc(OC)cc1 >= 0.9
Outgoing: false

Incoming: Item Cc1ccc(S(=O)(=O)N2[C@@H](c3ccccc3)C(C(=O)O)=CC[C@H]2c2ccc(C#N)cc2)cc1 with composite z-score of 0.9 or above?
Outgoing: false

Incoming: API: above_or_equal(metric=composite z-score, cutoff=0.9) for item C=CCC(OC(C)=O)[C@@H]1[C@@H](N(Cc2ccc(-c3ccccc3)cc2)C(=O)c2ccc(-c3ccccc3)cc2)c2cc(OCCCO)ccc2N1C(=O)c1ccc2ccccc2n1 (some centres undefined)
Outgoing: false

Incoming: Tell me whether composite z-score is at least 0.9 here: CCCC=C(CCC)[C@@H](NC(=O)c1ccco1)c1ccc(C(=O)OC)cc1
Outgoing: true

Incoming: Is the recorded value of composite z-score equal to or greater than 0.9 for this compound? C=C(COC)/C(=C/C[C@H](OC(=O)c1ccncc1)c1ccc(OCCO)cc1)c1cc(C(=O)OC)ccc1OC
Outgoing: true

Incoming: // inclusive: composite z-score at least 0.9? input: CCOC(=O)C1=CC[C@@H](c2ccccc2)N(S(=O)(=O)C[Si](C)(C)C)[C@H]1c1ccccc1
Outgoing: true

Incoming: Hello, I need to know if O=C1c2ccccc2[C@](Cc2ccccc2I)(C(=O)O)[C@H](c2ccc(CO)cc2)N1Cc1ccccc1 has measured composite z-score not below 0.9. Thanks!
Outgoing: true

Incoming: Given C=CCOC(=O)[C@H]1[C@@H]2C(=O)O[C@@H](c3ccccc3)[C@@H](c3ccccc3)N2[C@@H](c2ccc(OCCOC(=O)[C@@H]3C[C@@H]4C(=O)N[C@@H](CC(C)C)C(=O)N4[C@@H]3c3ccc(O)cc3)cc2)[C@]12C(=O)Nc1ccc(I)cc12 , state whether its composite z-score is at least 0.9.
Outgoing: true

Incoming: Could you tell me if the measured composite z-score of COC(=O)[C@@]1(Cc2ccc(OC)cc2)[C@H]2c3cc(C(=O)N4CCCC4)n(CCc4ccc(OC)c(Br)c4)c3C[C@H]2CN1C(=O)c1ccccc1 reaches 0.9 or more?
Outgoing: false

Incoming: Answer whether composite z-score of COCCOC(=O)N1C(=O)[C@@]2(c3cc(C#CCNC(N)=O)ccc31)[C@H](C(=O)NC[C@H](O)c1ccccc1)[C@H]1C(=O)O[C@H](c3ccccc3)[C@H](c3ccccc3)N1[C@@H]2c1ccc(OCCO)cc1 is greater than or equal to 0.9.
Outgoing: true

Incoming: Entry [N-]=[N+]=NCc1ccccc1C[C@]1(C(=O)N2CCCCC2)N=C(c2ccc(OCCCO)cc2)O[C@H]1c1ccccc1 : is its composite z-score no less than 0.9?
Outgoing: false

Incoming: Given Cc1c(NC(=O)/C(C#N)=C/c2ccc(Cl)cc2)c(=O)n(-c2ccccc2)n1C , state whether its composite z-score is at least 0.9.
Outgoing: false

Origin of measurements: PubChem BioAssay
